Task for the reader: assign each of the following molecules its reported melting point.

Lookup: Requested field: melting point. Item: CC(C)c1ccc(-c2ccn(-c3cccc(C(=O)O)c3)n2)cc1
Found: 215 to 216 °C

Lookup: Recorded melting point for COc1ccc(-n2ccc(-c3ccc(C(=O)O)cc3)n2)cc1 , please?
Found: 252 to 253 °C

Lookup: Value lookup for melting point; key = O=C(O)c1cccc(-n2cc(-c3ccccn3)cn2)c1
Found: 243 to 245 °C

Lookup: Data request, read-out melting point, for CC(C)c1ccc(-c2ccc(-n3cnc(-c4cccc(C(=O)O)c4)n3)cc2)cc1
Found: 225 to 228 °C

Lookup: Which measured melting point value corresponds to CC(C)c1ccc(-c2nn(-c3ccc(C(=O)O)cc3)c(=O)s2)cc1 ?
Found: 205 to 208 °C

Lookup: Using the record for O=C(O)c1cccc(-n2cnc(-c3ccccc3)c2)c1 , report its melting point.
Found: 277 to 279 °C

Lookup: If you can, please state the reported melting point value of CC(C)c1ccc(-c2nn(-c3ccc(C(=O)O)cc3)c(=S)s2)cc1 .
Found: 176 to 179 °C

Lookup: What value of melting point has been recorded for this entry: CC(C)c1ccc(-c2cn(-c3ccc(C(=O)O)cc3)nn2)cc1
Found: 311 to 312 °C

Lookup: Entry O=C(O)c1cccc(-n2cc(-c3ccc(OC(F)F)cc3)cn2)c1 has what melting point?
Found: 118 to 120 °C

Lookup: Fill blank: measured melting point of the molecule O=C(O)c1ccc(-n2cc(-c3ccccc3F)nn2)cc1 is ____.
Found: 292 to 294 °C

Lookup: Reported melting point for CC(C)c1ccc(-c2nn(-c3ccc(C(=O)O)cc3)c(=O)o2)cc1 : what is it?
Found: 252 to 254 °C

Lookup: Any idea what its melting point is? The molecule is N#Cc1cccc(-c2ccn(-c3cccc(C(=O)O)c3)n2)c1
Found: 164 to 166 °C

Lookup: Which melting point is reported for this molecule? O=C(O)c1ccc(-n2cc(-c3ccc(Br)cc3F)nn2)cc1
Found: 327 to 328 °C

Lookup: Can you look up the measured melting point of O=C(O)c1cccc(-n2cc(-c3ccc([N+](=O)[O-])cc3)cn2)c1 for me?
Found: 274 to 276 °C

Lookup: Need melting point, item O=C(O)c1ccc(-n2cc(-c3cnccn3)cn2)cc1
Found: 319 to 321 °C

Lookup: I am curious: what melting point value has been reported for CC(C)c1ccc(-c2nn(-c3ccc(C(=O)O)cc3)c(=S)o2)cc1 ?
Found: 239 to 240 °C

Lookup: Would you mind telling me what melting point value was observed for O=C(O)c1cccc(-c2ncn(-c3ccc(-c4cc5ccccc5o4)cc3)n2)c1 ?
Found: 293 to 295 °C

Lookup: melting point for O=C(O)c1cccc(-c2nn(-c3cccc(F)c3)c(=O)[nH]2)c1 ?
Found: > 310 °C

Lookup: Look at this molecule and give its reported melting point. COc1cccc(-n2ccc(-c3cccc(C(=O)O)c3)n2)c1
Found: 153 to 154 °C
